Source of measurements: ChEMBL document CHEMBL2331178

Reported pIC50 values, Human immunodeficiency virus type 1 reverse transcriptase (Human immunodeficiency virus 1).
pIC50: −log10 of the molar value.
Property measured: pIC50

# Compound, Endpoint result
rows = [
    ("CCOC(=O)c1c(OC2CC(C)CC(C)C2)cc(Cc2ccccc2)[nH]c1=O (mixture of isomers)", 4.13),
    ("CC(C)c1c(OC2CCCCC2C)cc(Cc2ccccc2)[nH]c1=O (mixture of isomers)", 6.39),
    ("CC1CCCCC1Oc1cc(Cc2ccccc2)[nH]c(=O)c1I (mixture of isomers)", 6.23),
    ("CCOC(=O)c1c(OC2CCCC(C)C2)cc(Cc2ccccc2)[nH]c1=O (mixture of isomers)", 4.70),
    ("CCOC(=O)c1c(OC2CCCCC2)cc(Cc2ccccc2)[nH]c1=O", 4.09),
    ("CC(C)c1c(OC2CCCCC2C)cc(CCc2ccccc2)[nH]c1=O (mixture of isomers)", 8.00),
]

###

A collection of compounds and their measured selectivity ratio
Protocol summary: Selectivity index, ratio of CC50 for human MT4 cells to EC50 for Human immunodeficiency virus 1 A17 infected in human MT4 cells
Type: toxicity, cell-based
Particulars: read-out: Ratio CC50/EC50
Property measured: selectivity ratio

# Compound, Property measured, Endpoint result
rows = [
    ("CC(C)c1c(OC2CCCCC2C)cc(Cc2ccc(F)cc2)[nH]c1=O (mixture of isomers)", "selectivity ratio", "< 6"),
    ("CC1CCCCC1Oc1cc(CCc2ccccc2)[nH]c(=O)c1I (mixture of isomers)", "selectivity ratio", "> 1070"),
    ("CC(C)c1c(Cc2ccccc2)n(COCc2ccccc2)c(=O)[nH]c1=O", "selectivity ratio", "< 8"),
    ("CC(C)c1c(O[C@H]2CCCC[C@@H]2C)cc(CCc2ccccc2)[nH]c1=O (racemic)", "selectivity ratio", "> 3330"),
    ("CC(C)c1c(O[C@H]2CCCC[C@H]2C)cc(CCc2ccccc2)[nH]c1=O (racemic)", "selectivity ratio", "< 8"),
    ("Cc1ccc(Cc2cc(OC3CCCCC3C)c(C(C)C)c(=O)[nH]2)cc1 (mixture of isomers)", "selectivity ratio", "< 11"),
]
